Test: Phase 1 single ascending dose (SAD) study: pharmacokinetics, food effect, formulation bridging
Type: in vivo, human
Conditions: both sexes, human, in vivo, po, 5 mg, single oral dose 5 mg, capsule, fasted; read-out: AUC0-24
measured metric: AUC(0-t)
Quote the value and follow it with the unit of measurement.

Entry "C=CC(=O)N1C[C@H](Nc2ncnc3[nH]cc([C@H]4CC4(F)F)c23)CC[C@@H]1C" , AUC(0-t) reported as 33.1 ng·h/mL

====

Test: Phase 1 single ascending dose (SAD) study: pharmacokinetics, food effect, formulation bridging
Format: in vivo, human
Conditions: both sexes, human, in vivo, po, 15 mg, single oral dose 15 mg, capsule, fasted; read-out: Tmax
measured metric: Tmax (h)
Field format: number, assumed h, no unit text.

Entry C=CC(=O)N1C[C@H](Nc2ncnc3[nH]cc([C@H]4CC4(F)F)c23)CC[C@@H]1C [Compound I] , Tmax reported as 1

====

Assay: Phase 1 single ascending dose (SAD) study: pharmacokinetics, food effect, formulation bridging
Type: in vivo, human
Conditions: both sexes, human, in vivo, po, 80 mg, single oral dose 80 mg, capsule, fasted
measured metric: AUC(0-inf) (ng·h/mL)
Field format: number, assumed ng·h/mL, no unit text.

Entry "C=CC(=O)N1C[C@H](Nc2ncnc3[nH]cc([C@H]4CC4(F)F)c23)CC[C@@H]1C" , AUC(0-inf) reported as 676

====

Experiment: Phase 1 single ascending dose (SAD) study: pharmacokinetics, food effect, formulation bridging
Format: in vivo, human
Details: both sexes, human, in vivo, po, 15 mg, single oral dose 15 mg, capsule, fed (high-fat, high-calorie breakfast); read-out: Tmax
measured metric: Tmax (h)
Field format: number, assumed h, no unit text.

Entry "C=CC(=O)N1C[C@H](Nc2ncnc3[nH]cc([C@H]4CC4(F)F)c23)CC[C@@H]1C" , Tmax reported as 5

====

Assay: Phase 1 multiple ascending dose (MAD) study: pharmacokinetics
Type: in vivo, human
Conditions: human, plasma, oral, 5 mg, Cohort 1, 5 mg BID, Day 1; read-out: Geometric Mean AUC_0-12
Description: Secondary Endpoints—Compound I plasma concentrations and PK parameters: AUC0-tau, AUC0-inf, Ctrough, Cmax, tmax, Kel, t1/2, CLss/F, Vss/F, Rae. Overall Design—This was a randomized, Investigator and participant-blind. Sponsor-unblinded, placebo-controlled study designed to evaluate the safety, tolerability, PK, and PD of Compound I in healthy participants. The study consisted of multiple cohorts assessing ascending doses of Compound I. Approximately 60 participants were enrolled into 5 cohorts. […]
measured metric: AUC(0-t) (ng·h/mL)
Field format: number, assumed ng·h/mL, no unit text.

Entry C=CC(=O)N1C[C@H](Nc2ncnc3[nH]cc([C@H]4CC4(F)F)c23)CC[C@@H]1C [Compound I] , AUC(0-t) reported as 26

====

Test: Phase 1 single ascending dose (SAD) study: pharmacokinetics, food effect, formulation bridging
Assay type: in vivo, human
Conditions: both sexes, human, in vivo, po, 50 mg, single oral dose 50 mg, capsule, fasted; read-out: AUC0-24
measured metric: AUC(0-t) (ng·h/mL)
Field format: number, assumed ng·h/mL, no unit text.

Entry "C=CC(=O)N1C[C@H](Nc2ncnc3[nH]cc([C@H]4CC4(F)F)c23)CC[C@@H]1C" , AUC(0-t) reported as 426

====

Assay: Phase 1 multiple ascending dose (MAD) study: pharmacokinetics
Format: in vivo, human
Details: human, plasma, oral, 40 mg, Cohort 5, 40 mg BID, Day 1; read-out: Geometric Mean Cmax
measured metric: Cmax (ng/mL)
Field format: number, assumed ng/mL, no unit text.

Entry "C=CC(=O)N1C[C@H](Nc2ncnc3[nH]cc([C@H]4CC4(F)F)c23)CC[C@@H]1C" , Cmax reported as 102

====

Experiment: Phase 1 multiple ascending dose (MAD) study: pharmacokinetics
Assay type: in vivo, human
Conditions: human, plasma, oral, 5 mg, Cohort 1, 5 mg BID, Day 15; read-out: Geometric Mean AUC_0-12
measured metric: AUC(0-t) (ng·h/mL)
Field format: number, assumed ng·h/mL, no unit text.

Entry "C=CC(=O)N1C[C@H](Nc2ncnc3[nH]cc([C@H]4CC4(F)F)c23)CC[C@@H]1C" , AUC(0-t) reported as 32

====

Assay: Phase 1 single ascending dose (SAD) study: pharmacokinetics, food effect, formulation bridging
Type: in vivo, human
Details: both sexes, human, in vivo, po, 5 mg, single oral dose 5 mg, capsule, fasted; read-out: Tmax
measured metric: Tmax (h)
Field format: number, assumed h, no unit text.

Entry C=CC(=O)N1C[C@H](Nc2ncnc3[nH]cc([C@H]4CC4(F)F)c23)CC[C@@H]1C [Compound I] , Tmax reported as 1.07

====

Assay: Phase 1 multiple ascending dose (MAD) study: pharmacokinetics
Format: in vivo, human
Details: human, plasma, oral, 15 mg, Cohort 2, 15 mg BID, Day 7; read-out: Geometric Mean AUCINF_obs
measured metric: AUC(0-inf)
Quote the value and follow it with the unit of measurement.

Entry "C=CC(=O)N1C[C@H](Nc2ncnc3[nH]cc([C@H]4CC4(F)F)c23)CC[C@@H]1C" , AUC(0-inf) reported as 110 ng·h/mL

====

Assay: Phase 1 multiple ascending dose (MAD) study: pharmacokinetics
Type: in vivo, human
Conditions: human, plasma, oral, 40 mg, Cohort 5, 40 mg BID, Day 15; read-out: Geometric Mean AUCINF_obs
measured metric: AUC(0-inf)
Quote the value and follow it with the unit of measurement.

Entry "C=CC(=O)N1C[C@H](Nc2ncnc3[nH]cc([C@H]4CC4(F)F)c23)CC[C@@H]1C" , AUC(0-inf) reported as 484 ng·h/mL

====

Assay: Phase 1 single ascending dose (SAD) study: pharmacokinetics, food effect, formulation bridging
Format: in vivo, human
Conditions: both sexes, human, in vivo, po, 25 mg, single oral dose 25 mg, tablet; read-out: Vz/F
measured metric: Vd/F (L)
Field format: number, assumed L, no unit text.

Entry "C=CC(=O)N1C[C@H](Nc2ncnc3[nH]cc([C@H]4CC4(F)F)c23)CC[C@@H]1C" , Vd/F reported as 317

====

Assay: Phase 1 multiple ascending dose (MAD) study: pharmacokinetics
Assay type: in vivo, human
Details: human, plasma, oral, 25 mg, Cohort 4, 25 mg BID, Day 1; read-out: Geometric Mean Cmax
measured metric: Cmax (ng/mL)
Field format: number, assumed ng/mL, no unit text.

Entry "C=CC(=O)N1C[C@H](Nc2ncnc3[nH]cc([C@H]4CC4(F)F)c23)CC[C@@H]1C" , Cmax reported as 64.3

====

Test: Phase 1 multiple ascending dose (MAD) study: pharmacokinetics
Assay type: in vivo, human
Details: human, plasma, oral, 5 mg, Cohort 1, 5 mg BID, Day 1; read-out: Geometric Mean Cmax
measured metric: Cmax (ng/mL)
Field format: number, assumed ng/mL, no unit text.

Entry "C=CC(=O)N1C[C@H](Nc2ncnc3[nH]cc([C@H]4CC4(F)F)c23)CC[C@@H]1C" , Cmax reported as 10.8

====

Assay: Phase 1 single ascending dose (SAD) study: pharmacokinetics, food effect, formulation bridging
Type: in vivo, human
Details: both sexes, human, in vivo, po, 1 mg, single oral dose 1 mg, capsule, fasted
measured metric: AUC(0-inf)
Quote the value and follow it with the unit of measurement.

Entry "C=CC(=O)N1C[C@H](Nc2ncnc3[nH]cc([C@H]4CC4(F)F)c23)CC[C@@H]1C" , AUC(0-inf) reported as 5.95 ng·h/mL

====

Experiment: 13 week toxicology and toxicokinetic study in cynomolgus monkeys
Type: in vivo, cynomolgus monkey
Details: cynomolgus monkey, in vivo, 6 mg/kg, monkey 6 mpk, Day 28; read-out: AUC0-24
measured metric: AUC(0-t)

Entry C=CC(=O)N1C[C@H](Nc2ncnc3[nH]cc([C@H]4CC4(F)F)c23)CC[C@@H]1C [Compound I] , AUC(0-t) reported as 1880 ng·h/mL

====

Assay: Phase 1 multiple ascending dose (MAD) study: pharmacokinetics
Type: in vivo, human
Conditions: human, plasma, oral; 15 mg BID, steady-state, 6 hours post-dose
measured metric: concentration at 6 h (ng/mL)
Field format: number, assumed ng/mL, no unit text.

Entry C=CC(=O)N1C[C@H](Nc2ncnc3[nH]cc([C@H]4CC4(F)F)c23)CC[C@@H]1C [Compound I] , concentration at 6 h reported as 4.3

====

Test: Phase 1 multiple ascending dose (MAD) study: pharmacokinetics
Format: in vivo, human
Settings: human, plasma, oral, 15 mg, Cohort 2, 15 mg BID, Day 15; read-out: Geometric Mean Cmax
measured metric: Cmax
Quote the value and follow it with the unit of measurement.

Entry "C=CC(=O)N1C[C@H](Nc2ncnc3[nH]cc([C@H]4CC4(F)F)c23)CC[C@@H]1C" , Cmax reported as 38.9 ng/mL

====

Assay: Phase 1 single ascending dose (SAD) study: pharmacokinetics, food effect, formulation bridging
Assay type: in vivo, human
Details: both sexes, human, in vivo, po, 80 mg, single oral dose 80 mg, capsule, fasted; read-out: Vz/F
measured metric: Vd/F (L)
Field format: number, assumed L, no unit text.

Entry C=CC(=O)N1C[C@H](Nc2ncnc3[nH]cc([C@H]4CC4(F)F)c23)CC[C@@H]1C [Compound I] , Vd/F reported as 432

These entries and their values trace back to patent US20260191863A1.
